assay: Water solubility of the compound […] at pH 9.0 incubated for 24 hrs under shaking condition by HPLC analysis; assay type: physicochemical
Listing of recorded solubility thermodynamic at 24 h by entry.
MEASUREMENT_LABEL: solubility thermodynamic at 24 h (µM)

MOLECULE | UNITS | VALUE_REPORTED
O=C(NC1CCC(O)C1)c1cccc2c3c([nH]c12)CN(C(=O)Cc1cccs1)CC3 (configuration not stated) | µM | 50.4
O=C(Cc1ccccc1)N1CCc2c([nH]c3ccccc23)C1 | µM | 10.7

* * *

A collection of compounds and their measured solubility thermodynamic at 24 h
experiment: Water solubility of the compound in PBS buffer at pH 7.4 incubated for 24 hrs under shaking condition by HPLC analysis; type: physicochemical
MEASUREMENT_LABEL: solubility thermodynamic at 24 h (µM)

COMPOUND | MEASUREMENT_LABEL | VALUE_REPORTED
O=C(NC1CCC(O)C1)c1cccc2c3c([nH]c12)CN(C(=O)Cc1cccs1)CC3 (configuration not stated) | solubility thermodynamic at 24 h | 41.4
O=C(Cc1ccccc1)N1CCc2c([nH]c3ccccc23)C1 | solubility thermodynamic at 24 h | 7.24

* * *

system: NCI-H1299; assay: Antiproliferative activity against human NCI-H1299 cells assessed as inhibition of cell growth measured after 72 hrs by SRB method; type: functional, cell-based; settings: NCI-H1299, 72 h
pIC50: −log10 of the molar value.
MEASUREMENT_LABEL: pIC50

COMPOUND | VALUE_REPORTED
O=C(NC1CCC(O)C1)c1cccc2c3c([nH]c12)CN(C(=O)Cc1cccs1)CC3 (stereo unspecified) | 6.68

* * *

// values below are reported recovery at 16 h
assay: Permeability of the compound in PBS buffer assessed as drug recovery at pH 7.4 incubated for 16 hrs by PAMPA method; type: ADME; settings: read-out: Drug recovery

COMPOUND | recovery at 16 h
CN(Cc1cnc2nc(N)nc(N)c2n1)c1ccc(C(=O)N[C@@H](CCC(=O)O)C(=O)O)cc1 [METHOTREXATE] | 96.2%
C[C@]12CC[C@H]3[C@@H](CCC4=CC(=O)CC[C@@]43C)[C@@H]1CC[C@@H]2O [TESTOSTERONE] | 85.6%
O=C(Cc1ccccc1)N1CCc2c([nH]c3ccccc23)C1 | 24.4%
O=C(NC1CCC(O)C1)c1cccc2c3c([nH]c12)CN(C(=O)Cc1cccs1)CC3 (centres undefined) | 65.8%

* * *

experiment: Water solubility of the compound in PBS buffer at pH 2.0 incubated for 24 hrs under shaking condition by HPLC analysis; assay type: physicochemical
Listed next: entries and their corresponding solubility thermodynamic at 24 h.
MEASUREMENT_LABEL: solubility thermodynamic at 24 h (µM)

COMPOUND | VALUE_REPORTED
O=C(NC1CCC(O)C1)c1cccc2c3c([nH]c12)CN(C(=O)Cc1cccs1)CC3 (configuration not stated) | 40
O=C(Cc1ccccc1)N1CCc2c([nH]c3ccccc23)C1 | 2.23

* * *

test system: NCI-H522; test: Antiproliferative activity against human NCI-H522 cells assessed as inhibition of cell growth measured after 72 hrs by SRB method; type: functional, cell-based; conditions: NCI-H522, 72 h
MEASUREMENT_LABEL: IC50 (nM)

MOLECULE | MEASUREMENT_LABEL | VALUE_REPORTED
O=C(NC1CCC(O)C1)c1cccc2c3c([nH]c12)CN(C(=O)Cc1cccs1)CC3 (stereo unspecified) | IC50 | 260
